- experimental system: Thymidine kinase (Ureaplasma parvum serovar 3 (strain ATCC 700970)) (UniProt Q9PPP5)
- Sequence (Q9PPP5 whole entry): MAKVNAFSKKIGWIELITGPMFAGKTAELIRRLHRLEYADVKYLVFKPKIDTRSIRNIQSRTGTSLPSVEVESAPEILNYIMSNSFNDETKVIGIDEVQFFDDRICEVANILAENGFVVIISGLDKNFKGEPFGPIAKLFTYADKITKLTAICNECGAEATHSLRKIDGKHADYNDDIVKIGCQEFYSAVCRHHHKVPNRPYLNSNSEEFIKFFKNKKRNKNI
- experiment summary: Ratio of Vmax to Km for Ureaplasma parvum thymidine kinase relative to dThd
Cut-off 0.8% on Activity: below means yes (1), at or above means no (0).

Study these solved cases before continuing.
INSERT INTO assay_data (chemical_smiles, assigned_class) VALUES
  ('CCCCCc1cn([C@H]2C[C@H](n3cc(C)c(=O)[nH]c3=O)O[C@@H]2CO)nn1', 'no (0)'),
  ('Cc1cn([C@H]2C[C@H](N=[N+]=[N-])[C@@H](CO)O2)c(=O)[nH]c1=O', 'no (0)'),
  ('CC(=O)OCc1cn([C@H]2C[C@H](n3cc(C)c(=O)[nH]c3=O)O[C@@H]2CO)nn1', 'yes (1)');

In the following, a different compound is considered.
Qu. Activity under 0.8%? Item: CCCc1cn([C@H]2C[C@H](n3cc(C)c(=O)[nH]c3=O)O[C@@H]2CO)nn1
Ans. yes (1)

* * *

- experimental system: Thymidine kinase (Ureaplasma parvum serovar 3 (strain ATCC 700970)) (UniProt Q9PPP5)
- experiment summary: Activity of Ureaplasma parvum thymidine kinase relative to dThd
reported property: Activity
Answer format: number, then unit.

INSERT INTO assay_data (chemical_smiles, experimental_system, recorded_measurement) VALUES
  ('Cc1cn([C@H]2C[C@H](N=[N+]=[N-])[C@@H](CO)O2)c(=O)[nH]c1=O', 'Thymidine kinase (Ureaplasma parvum serovar 3 (strain ATCC 700970)) (UniProt Q9PPP5)', '27.8%'),
  ('Cc1cn([C@H]2C[C@H](n3cc(-c4ccccc4)nn3)[C@@H](CO)O2)c(=O)[nH]c1=O', 'Thymidine kinase (Ureaplasma parvum serovar 3 (strain ATCC 700970)) (UniProt Q9PPP5)', '5.5%');

Query compound follows.
Qu. Give reported Activity value for COCc1cn([C@H]2C[C@H](n3cc(C)c(=O)[nH]c3=O)O[C@@H]2CO)nn1
Ans. 1.6%

* * *

- experimental system: Thymidine kinase (Ureaplasma parvum serovar 3 (strain ATCC 700970)) (UniProt Q9PPP5)
- experiment summary: Activity of Ureaplasma parvum thymidine kinase relative to dThd
Definition: the class of an entry is the range in small value = under 5%, mid value = from 5% up to 10%, large value = 10% and over that contains its Activity.

Study these solved cases before continuing.
INSERT INTO assay_data (chemical_smiles, assigned_class) VALUES
  ('Cc1cn([C@H]2C[C@H](n3cc(-c4ccc(F)cc4)nn3)[C@@H](CO)O2)c(=O)[nH]c1=O', 'large value'),
  ('Cc1cn([C@H]2C[C@H](n3cc(-c4ccccn4)nn3)[C@@H](CO)O2)c(=O)[nH]c1=O', 'mid value');

Qu. // bin(item) where item = CCCCCc1cn([C@H]2C[C@H](n3cc(C)c(=O)[nH]c3=O)O[C@@H]2CO)nn1
Ans. mid value

Qu. // bin(item) where item = CCCc1cn([C@H]2C[C@H](n3cc(C)c(=O)[nH]c3=O)O[C@@H]2CO)nn1
Ans. mid value

Qu. // bin(item) where item = Cc1cn([C@H]2C[C@H](n3cc(Cc4ccccc4)nn3)[C@@H](CO)O2)c(=O)[nH]c1=O
Ans. large value

Qu. // bin(item) where item = Cc1cn([C@H]2C[C@H](n3cc(CCc4ccccc4)nn3)[C@@H](CO)O2)c(=O)[nH]c1=O
Ans. large value

Qu. // bin(item) where item = CC(=O)OCc1cn([C@H]2C[C@H](n3cc(C)c(=O)[nH]c3=O)O[C@@H]2CO)nn1
Ans. small value

Qu. // bin(item) where item = Cc1cn([C@H]2C[C@H](n3cc(CCO)nn3)[C@@H](CO)O2)c(=O)[nH]c1=O
Ans. small value

Qu. // bin(item) where item = Cc1cn([C@H]2C[C@H](n3cc(C(C)(C)C)nn3)[C@@H](CO)O2)c(=O)[nH]c1=O
Ans. small value

Measured values drawn from ChEMBL document CHEMBL1158545 for this set.
